Sourced from patent US12398093B2

# Assay system: human 5-HT2A receptor (Homo sapiens)
# Construct: expressed in transfected cells
# Sequence (P28223 whole entry): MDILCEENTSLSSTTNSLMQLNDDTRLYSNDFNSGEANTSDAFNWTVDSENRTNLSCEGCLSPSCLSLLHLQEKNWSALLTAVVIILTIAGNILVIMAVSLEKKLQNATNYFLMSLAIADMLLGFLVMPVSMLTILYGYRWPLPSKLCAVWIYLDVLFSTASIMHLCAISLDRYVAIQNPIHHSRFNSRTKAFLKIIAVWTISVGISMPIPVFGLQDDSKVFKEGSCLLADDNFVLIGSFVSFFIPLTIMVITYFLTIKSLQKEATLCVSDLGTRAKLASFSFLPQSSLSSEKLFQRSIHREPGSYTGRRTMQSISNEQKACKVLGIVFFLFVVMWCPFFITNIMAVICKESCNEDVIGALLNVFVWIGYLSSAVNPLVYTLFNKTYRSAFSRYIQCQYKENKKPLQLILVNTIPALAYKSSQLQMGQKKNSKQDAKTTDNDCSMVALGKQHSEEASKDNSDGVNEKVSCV
# Assay procedure: Gq-mediated calcium transients (calcium mobilization), Fluo-4, HEK cells
# Format: cell-based
# Assay context: Table 4; percentage of 5-HT response
Measurement name: EMAX (%) calcium mobilization
Please answer in the form of a number followed by its unit of measurement.

Worked examples, 3 molecules total:
| Molecule | EMAX (%) calcium mobilization |
| --- | --- |
| COc1cc(C(C)C)c(OC)cc1CC(C)N (stereo not drawn) [DOiP] | 73.17% |
| COc1ccc(OC)c(CCN)c1 [2C-H] | 69.50% |
| COc1cc(CCN)c(OC)cc1I [2C-I] | 72.80% |

Return reported EMAX (%) calcium mobilization values for all items listed beneath this line.
1. COc1cc(C(C)C)c(OC)cc1CCN [2C-iP]
2. COc1cc(CCN)c(OC)cc1Br [2C-B]
3. COc1cc(C[C@@H](C)N)c(OC)cc1Br [R-DOB]

["52.07%", "78.00%", "79.80%"]
